B1: Ribonuclease, P00648 (parent)
chain: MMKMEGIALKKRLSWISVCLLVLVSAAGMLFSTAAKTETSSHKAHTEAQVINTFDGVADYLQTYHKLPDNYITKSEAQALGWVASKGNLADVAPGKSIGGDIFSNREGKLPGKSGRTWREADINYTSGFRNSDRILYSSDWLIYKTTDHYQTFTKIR

- Variants of: B1
- condition_notes: Bacillus amyloliquefaciens; pH 4.4; Thermal; DSC; Sodium acetate/Acetic acid 6.08 mM/13.92 mM/; reversible: yes (>95%); structure 1BNI; whole UniProt chain shown
parameter: unfolding enthalpy (calorimetric) (kcal/mol)
Numbers only, in kcal/mol.

>>> print(df.to_string())
   variant_key  reading
0        S139A      111
1         D69M      129
2         T73G      112
3         I98V      118
4         T63R      126

I would be grateful if you could provide unfolding enthalpy (calorimetric) for each of the following entries.
1. I135V
2. R130Q
3. D59G
4. D55A
5. R116M

[119, 117, 123, 124, 106]

From: FireProtDB (doi:10.1093/protein/7.9.1089)
